- Test Target: T1, TLR8 extracellular domain (Homo sapiens, UniProt Q9NR97 27-827)
- T1 sequence: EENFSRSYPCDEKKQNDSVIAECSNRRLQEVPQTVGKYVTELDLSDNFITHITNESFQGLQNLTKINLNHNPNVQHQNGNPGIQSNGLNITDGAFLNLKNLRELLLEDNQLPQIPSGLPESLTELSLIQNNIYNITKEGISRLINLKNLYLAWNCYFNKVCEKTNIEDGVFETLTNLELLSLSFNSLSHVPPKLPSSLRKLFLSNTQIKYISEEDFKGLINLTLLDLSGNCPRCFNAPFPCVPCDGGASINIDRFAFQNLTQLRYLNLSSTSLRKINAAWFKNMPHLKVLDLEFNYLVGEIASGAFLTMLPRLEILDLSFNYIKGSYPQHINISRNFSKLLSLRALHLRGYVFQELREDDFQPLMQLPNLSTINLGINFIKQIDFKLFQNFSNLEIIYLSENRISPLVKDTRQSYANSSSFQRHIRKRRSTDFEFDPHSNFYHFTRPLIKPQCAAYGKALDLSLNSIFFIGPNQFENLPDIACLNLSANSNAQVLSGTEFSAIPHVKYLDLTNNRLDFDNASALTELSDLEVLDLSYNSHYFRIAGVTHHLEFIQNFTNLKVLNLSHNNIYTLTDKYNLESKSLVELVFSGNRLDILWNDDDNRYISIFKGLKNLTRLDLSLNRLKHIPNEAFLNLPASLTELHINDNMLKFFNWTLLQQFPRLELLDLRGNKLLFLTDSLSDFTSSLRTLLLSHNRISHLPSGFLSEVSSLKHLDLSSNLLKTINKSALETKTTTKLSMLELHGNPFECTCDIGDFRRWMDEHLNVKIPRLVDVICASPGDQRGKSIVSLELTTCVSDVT
- Method Summary: SPR
Measured Attribute: Kd (µM)
Report as a plain number; the unit µM is understood.

Q: Tell me the measured Kd of GCC (XNA, 2'-OMe at G1; DNA C2 and C3; phosphorothioate linkages, stereorandom) [GCC-v4 (mGdCdC)] , please.
Ans: 8
